Measured Cell survival, listed per entry for reference.
System: NCI-H520
test-method-notes: In vitro cell growth inhibition of H520 cell line determined using non-radioactive cell proliferation assay at a dose of 10 uM
Format: functional, Homo sapiens
Quick reminder: number only, in %, skip the unit.

Example cases with answers are listed next.
smiles-string: COC(=O)[C@H](CC(C)C)NC(=O)[C@@H]1Cc2c([nH]c3ccccc23)[C@@H](c2cc(OC)c(O)c(OC)c2)N1
target-system: NCI-H520
Cell survival, %: 84
//
smiles-string: COC(=O)[C@H](CCCCN)NC(=O)[C@@H]1Cc2c([nH]c3ccccc23)[C@@H](c2cc(OC)c(O)c(OC)c2)N1
target-system: NCI-H520
Cell survival, %: 99.3
//
smiles-string: COc1cc([C@@H]2c3[nH]c4ccccc4c3C[C@H]3C(=O)N[C@H](C)C(=O)N23)cc(OC)c1O
target-system: NCI-H520
Cell survival, %: 93.8
//
smiles-string: COC(=O)[C@H](CO)NC(=O)[C@@H]1Cc2c([nH]c3ccccc23)[C@@H](c2cc(OC)c(O)c(OC)c2)N1
target-system: NCI-H520
Cell survival, %: 87
//
smiles-string: COC(=O)[C@H](NC(=O)[C@@H]1Cc2c([nH]c3ccccc23)[C@@H](c2cc(OC)c(O)c(OC)c2)N1)C(C)C
target-system: NCI-H520
Cell survival, %: 90

Now turn to the next compound.
`COc1cc([C@@H]2c3[nH]c4ccccc4c3C[C@H]3C(=O)NCC(=O)N23)cc(OC)c1O` yielded Cell survival of 91.6

====

Test system: NCI-H520
test-method-notes: In vitro cell growth inhibition of H520 cell line determined using non-radioactive cell proliferation assay at a dose of 10 uM
Type: functional, Homo sapiens
attribute-measured: Cell survival (%)
Quick reminder: number only, in %, skip the unit.

smiles-string: COC(=O)[C@H](CCSC)NC(=O)[C@@H]1Cc2c([nH]c3ccccc23)[C@@H](c2cc(OC)c(O)c(OC)c2)N1
result-unit: %
Cell survival: 99.2

Now turn to the next molecule.
Response field Cell survival (NCI-H520) for item `COC(=O)[C@H]1CCCN1C(=O)[C@@H]1Cc2c([nH]c3ccccc23)[C@@H](c2cc(OC)c(O)c(OC)c2)N1` : 94.3

====

Measured Cell survival, listed per entry for reference.
System: NCI-H520
test-method-notes: In vitro cell growth inhibition of H520 cell line determined using Non-Radioactive Cell Proliferation Assay at a dose of 100 uM
Format: functional, Homo sapiens
Please make sure the unit comes right after the number.

Example cases with answers are listed next.
smiles-string: COC(=O)[C@@H](Cc1c[nH]c2ccccc12)NC(=O)[C@@H]1Cc2c([nH]c3ccccc23)[C@@H](c2cc(OC)c(O)c(OC)c2)N1
attribute-measured: Cell survival
endpoint-value: 7.2%
//
smiles-string: COC(=O)[C@H](Cc1ccc(O)cc1)NC(=O)[C@@H]1Cc2c([nH]c3ccccc23)[C@@H](c2cc(OC)c(O)c(OC)c2)N1
attribute-measured: Cell survival
endpoint-value: 98.6%
//
smiles-string: COC(=O)[C@H](CC(C)C)NC(=O)[C@@H]1Cc2c([nH]c3ccccc23)[C@@H](c2cc(OC)c(O)c(OC)c2)N1
attribute-measured: Cell survival
endpoint-value: 83.2%

`COC(=O)[C@H](Cc1c[nH]c2ccccc12)NC(=O)[C@@H]1Cc2c([nH]c3ccccc23)[C@@H](c2cc(OC)c(O)c(OC)c2)N1` yielded Cell survival of 2.8%

====

Test system: NCI-H520
test-method-notes: In vitro cell growth inhibition of H520 cell line determined using Non-Radioactive Cell Proliferation Assay at a dose of 100 uM
Format: functional, Homo sapiens
Please assign a class to every record based on measured Cell survival, with ranges bin A = under 80%, bin B = from 80% up to 90%, bin C = 90% and over

smiles-string: COC(=O)[C@@H](NC(=O)[C@@H]1Cc2c([nH]c3ccccc23)[C@@H](c2cc(OC)c(O)c(OC)c2)N1)c1ccccc1
label-value: bin B

smiles-string: COC(=O)[C@H](CCCCN)NC(=O)[C@@H]1Cc2c([nH]c3ccccc23)[C@@H](c2cc(OC)c(O)c(OC)c2)N1
label-value: bin C

smiles-string: COC(=O)[C@H](NC(=O)[C@@H]1Cc2c([nH]c3ccccc23)[C@@H](c2cc(OC)c(O)c(OC)c2)N1)C(C)C
label-value: bin C

smiles-string: COc1cc([C@@H]2c3[nH]c4ccccc4c3C[C@H]3C(=O)NCC(=O)N23)cc(OC)c1O
label-value: bin A

smiles-string: COC(=O)[C@@H](Cc1ccc(O)cc1)NC(=O)[C@@H]1Cc2c([nH]c3ccccc23)[C@@H](c2cc(OC)c(O)c(OC)c2)N1
label-value: bin B

smiles-string: COC(=O)[C@@H](C)NC(=O)[C@@H]1Cc2c([nH]c3ccccc23)[C@@H](c2cc(OC)c(O)c(OC)c2)N1
label-value: bin C

smiles-string: COC(=O)[C@@H](Cc1ccccc1)NC(=O)[C@@H]1Cc2c([nH]c3ccccc23)[C@@H](c2cc(OC)c(O)c(OC)c2)N1
label-value: bin A

smiles-string: COC(=O)[C@@H]1CCCN1C(=O)[C@@H]1Cc2c([nH]c3ccccc23)[C@@H](c2cc(OC)c(O)c(OC)c2)N1
label-value: bin B

Query string: Into which category would you place `COC(=O)[C@H](Cc1ccccc1)NC(=O)[C@@H]1Cc2c([nH]c3ccccc23)[C@@H](c2cc(OC)c(O)c(OC)c2)N1` ?
Result string: bin A

Query string: Into which category would you place `COC(=O)[C@@H](NC(=O)[C@@H]1Cc2c([nH]c3ccccc23)[C@@H](c2cc(OC)c(O)c(OC)c2)N1)C(C)C` ?
Result string: bin C

====

System: NCI-H520
test-method-notes: In vitro cell growth inhibition of H520 cell line determined using non-radioactive cell proliferation assay at a dose of 10 uM
Type: functional, Homo sapiens
Measured Cell survival, listed per entry for reference.
Quick reminder: number only, in %, skip the unit.

smiles-string: COC(=O)[C@H](Cc1c[nH]c2ccccc12)NC(=O)[C@@H]1Cc2c([nH]c3ccccc23)[C@@H](c2cc(OC)c(O)c(OC)c2)N1
endpoint-value: 67.9
--
smiles-string: COC(=O)[C@@H]1CCCN1C(=O)[C@@H]1Cc2c([nH]c3ccccc23)[C@@H](c2cc(OC)c(O)c(OC)c2)N1
endpoint-value: 80.5
--
smiles-string: COC(=O)[C@H](Cc1ccccc1)NC(=O)[C@@H]1Cc2c([nH]c3ccccc23)[C@@H](c2cc(OC)c(O)c(OC)c2)N1
endpoint-value: 59.4

Response field Cell survival (NCI-H520) for item `COC(=O)[C@@H](Cc1ccccc1)NC(=O)[C@@H]1Cc2c([nH]c3ccccc23)[C@@H](c2cc(OC)c(O)c(OC)c2)N1` : 77.6

Response field Cell survival (NCI-H520) for item `COC(=O)[C@@H](CCCCN)NC(=O)[C@@H]1Cc2c([nH]c3ccccc23)[C@@H](c2cc(OC)c(O)c(OC)c2)N1` : 78.3

Response field Cell survival (NCI-H520) for item `COC(=O)[C@@H](CC(C)C)NC(=O)[C@@H]1Cc2c([nH]c3ccccc23)[C@@H](c2cc(OC)c(O)c(OC)c2)N1` : 85.2

Response field Cell survival (NCI-H520) for item `COC(=O)[C@@H](NC(=O)[C@@H]1Cc2c([nH]c3ccccc23)[C@@H](c2cc(OC)c(O)c(OC)c2)N1)C(C)C` : 87.6

Response field Cell survival (NCI-H520) for item `COC(=O)[C@@H](NC(=O)[C@@H]1Cc2c([nH]c3ccccc23)[C@@H](c2cc(OC)c(O)c(OC)c2)N1)c1ccccc1` : 82.7

====

Measured Cell survival, listed per entry for reference.
System: NCI-H520
test-method-notes: In vitro cell growth inhibition of H520 cell line determined using Non-Radioactive Cell Proliferation Assay at a dose of 100 uM
Type: functional, Homo sapiens
Quick reminder: number only, in %, skip the unit.

smiles-string: COC(=O)[C@H](CO)NC(=O)[C@@H]1Cc2c([nH]c3ccccc23)[C@@H](c2cc(OC)c(O)c(OC)c2)N1
target-system: NCI-H520
result-unit: %
Cell survival: 79.6

Now turn to the next molecule.
`COC(=O)[C@H](NC(=O)[C@@H]1Cc2c([nH]c3ccccc23)[C@@H](c2cc(OC)c(O)c(OC)c2)N1)c1ccccc1` yielded Cell survival of 99.2

====

Measured Cell survival, listed per entry for reference.
Test system: NCI-H520
test-method-notes: In vitro cell growth inhibition of H520 cell line determined using Non-Radioactive Cell Proliferation Assay at a dose of 100 uM
Assay type: functional, Homo sapiens
Quick reminder: number only, in %, skip the unit.

smiles-string: COC(=O)[C@@H](CCCCN)NC(=O)[C@@H]1Cc2c([nH]c3ccccc23)[C@@H](c2cc(OC)c(O)c(OC)c2)N1
Cell survival [%]: 87.7

smiles-string: COC(=O)[C@@H](CC(C)C)NC(=O)[C@@H]1Cc2c([nH]c3ccccc23)[C@@H](c2cc(OC)c(O)c(OC)c2)N1
Cell survival [%]: 80.6

smiles-string: COC(=O)[C@@H](CCSC)NC(=O)[C@@H]1Cc2c([nH]c3ccccc23)[C@@H](c2cc(OC)c(O)c(OC)c2)N1
Cell survival [%]: 89.6

smiles-string: COc1cc([C@@H]2c3[nH]c4ccccc4c3C[C@H]3C(=O)N[C@H](C)C(=O)N23)cc(OC)c1O
Cell survival [%]: 91.5

Now turn to the next compound.
`COC(=O)[C@H](CCSC)NC(=O)[C@@H]1Cc2c([nH]c3ccccc23)[C@@H](c2cc(OC)c(O)c(OC)c2)N1` yielded Cell survival of 79.9
